I'd be grateful if you could share measured permeability for these entries.
PROTOCOL: Permeability of the compound by PAMPA method
Type: ADME

permeability measured on O=C(CNc1cccc(Br)c1)NC12CC3CC(CC(C3)C1)C2 = 1.02 10^-6 cm/s

permeability measured on C[C@@H]1[C@H]2C[C@@H](C[C@H]1NC(=O)CNc1ccccc1Cl)C2(C)C = 0.38 10^-6 cm/s

permeability measured on O=C(CNc1ccc(OC(F)(F)F)cc1)NC1C2CC3CC(C2)CC1C3 (stereo not given) = 3.12 10^-6 cm/s

permeability measured on O=C(CNc1ccc(OC(F)(F)F)cc1)NC12CC3CC(CC(C3)C1)C2 = 0.47 10^-6 cm/s

permeability measured on O=C(CNc1ccc(C(F)(F)F)cc1)NC1C2CC3CC(C2)CC1C3 (stereo not given) = 0.34 10^-6 cm/s

###

I'd be grateful if you could share measured selectivity ratio for these entries.
PROTOCOL: Selectivity index, ratio of IC50 for Cytotoxicity against human WI26VA4 cells to MIC for antimycobacterial activity against Mycobacterium tuberculosis H37Rv mc2 6206
Type: toxicity, cell-based
MEASUREMENT_CONTEXT: read-out: Selectivity Index

selectivity ratio measured on O=C(CNc1cccc(OC(F)(F)F)c1)NC12CC3CC(CC(C3)C1)C2 = > 80

selectivity ratio measured on O=C(CNc1ccc(OC(F)(F)F)cc1)NC1C2CC3CC(C2)CC1C3 (stereo not given) = > 5

selectivity ratio measured on C[C@@H]1[C@H]2C[C@@H](C[C@H]1NC(=O)CNc1ccc(OC(F)(F)F)cc1)C2(C)C = > 5

selectivity ratio measured on C[C@@H]1[C@H]2C[C@@H](C[C@H]1NC(=O)CNc1cccc(Cl)c1)C2(C)C = > 80

selectivity ratio measured on O=C(CNc1ccc(OC(F)(F)F)cc1)NC12CC3CC(CC(C3)C1)C2 = > 1.2

###

PROTOCOL: Metabolic stability in mouse liver S9 fraction assessed as parent compound remaining at 5 ug/ml after 90 mins in presence of NADPH by LC/MS analysis
Format: ADME, subcellular
MEASUREMENT_CONTEXT: s9, 1.5 h, dose 5 µg/ml
PROPERTY_MEASURED: t1/2
Please state the value followed by its unit.

t1/2 measured on O=C(CNc1cccc(Cl)c1)NC12CC3CC(CC(C3)C1)C2 = 1.7 h

t1/2 measured on C[C@@H]1[C@H]2C[C@@H](C[C@H]1NC(=O)CNc1ccc(OC(F)(F)F)cc1)C2(C)C = 4.1 h

t1/2 measured on C[C@@H]1[C@H]2C[C@@H](C[C@H]1NC(=O)CNc1ccccc1Cl)C2(C)C = 8.6 h

t1/2 measured on C[C@@H]1[C@H]2C[C@@H](C[C@H]1NC(=O)CNc1cccc(Cl)c1)C2(C)C = 4.6 h

t1/2 measured on O=C(CNc1ccc(Br)cc1)NC12CC3CC(CC(C3)C1)C2 = 4 h

###

I'd be grateful if you could share measured Kd for these entries.
PROTOCOL: Binding affinity to Mycobacterium tuberculosis MmpL3 assessed as equilibrium constant by SPR analysis
Please state the figure in µM; there is no need to write the unit.

Kd measured on O=C(CNc1cccc(OC(F)(F)F)c1)NC12CC3CC(CC(C3)C1)C2 = 780

Kd measured on C[C@@H]1[C@H]2C[C@@H](C[C@H]1NC(=O)CNc1cccc(Cl)c1)C2(C)C = 800

// provenance: ChEMBL document CHEMBL5316284
